system: MS2 coat protein; experiment: apparent KD of MS2 coat protein; designed switch direction (-1 OFF switch, 1 ON switch): 1; higher = weaker reporter binding; conditions: Eterna round: R95; input ligand: microRNA oligo, concentration not stated
Consider the following sequences and their measured apparent KD of MS2 coat protein readings.
Lab book: enter the figure in nM, no units written.

>  <entrySequence>
CUCAAACAUGAGGAUCACCCAUGUGUUGUCAUGGGAGGAUAUCUAAGUUCGUUGUAGUCGGGAGAAGGCCUAUGUC [× ×•×ª×• ×ž×“×™× ×” × ×—×ª-11] (puzzle: Same State 1)

>  <targetOfAssay>
MS2 coat protein

>  <resultUnit>
nM

>  <apparent KD of MS2 coat protein>
182

$$$$
>  <entrySequence>
GGAGCCGGCACCGAGGAUAUUUAUAUUAAAACAUGAGGAUCACCCAUGUAGGCCAGAAGGCCUUGGGAGAAGGCGGAUCGGCUCG [Xeonanis - 5] (puzzle: Same State 2)

>  <targetOfAssay>
MS2 coat protein

>  <resultUnit>
nM

>  <apparent KD of MS2 coat protein>
75.7

$$$$
>  <entrySequence>
UCUUGGUUUUUGCUCGUUUUUUGUGUUGAACAUGAGGAUCACCCAUGUAUUGUACAGUCCGAUUUAAUAAUGGUCCG [JMF 57] (puzzle: Sensor for hsa-mir-208a)

>  <targetOfAssay>
MS2 coat protein

>  <resultUnit>
nM

>  <apparent KD of MS2 coat protein>
26

$$$$
>  <entrySequence>
AAAACACAUGAGGAUCACCCAUGUACCAGGUACAUAGGAUAUCCAGGCGCCAAAUAGCGCGGAGAAGGAUGGAAAA [Radireatdi] (puzzle: Same State 1)

>  <targetOfAssay>
MS2 coat protein

>  <resultUnit>
nM

>  <apparent KD of MS2 coat protein>
237

$$$$
>  <entrySequence>
CAAGCUUGGGUCGUCCCGCUCGUCUUCAAACAUGAGGAUCACCCAUGUAUACUCUUCACAUCAAUUCUAUCUCUUAA [Ralasoerin] (puzzle: Sensor for hsa-mir-208a)

>  <targetOfAssay>
MS2 coat protein

>  <resultUnit>
nM

>  <apparent KD of MS2 coat protein>
22.8

$$$$

QUERY: Give the measured apparent KD of MS2 coat protein of AGUCCAGCCUGAGCUGGACAAAAGCAUGUACAUGAGGAUCACCCAUGUUCGUGUACAAGCUUUUUGCUCGUCUUAAA [Zipper 52 - 5] (puzzle: Sensor for hsa-mir-208a) .
RESULT: 13.5

QUERY: How about UUAUAACAUGAGGAUCACCCAUGUCAUCUAAGUCGAGGAUAUGGGCAAAUAAUAUAAGAACCAGAAGGCGAAUAUU [Mat - Same State 1 - Mod of UCT - D46] (puzzle: Same State 1) ?
RESULT: 147

QUERY: How about AGGAAGGAGACUGAGGAUAUCGUUGAAAAGACAUGAGGAUCACCCAUGUGUAUAGGAUUGGAGAACGAGAAGGCAGAGGAGUGGA [JR_SS2_Sub044] (puzzle: Same State 2) ?
RESULT: 33.3
